# Study System: Protein deacetylase HDAC6 (Homo sapiens)
# Sequence (Q9UBN7 whole entry): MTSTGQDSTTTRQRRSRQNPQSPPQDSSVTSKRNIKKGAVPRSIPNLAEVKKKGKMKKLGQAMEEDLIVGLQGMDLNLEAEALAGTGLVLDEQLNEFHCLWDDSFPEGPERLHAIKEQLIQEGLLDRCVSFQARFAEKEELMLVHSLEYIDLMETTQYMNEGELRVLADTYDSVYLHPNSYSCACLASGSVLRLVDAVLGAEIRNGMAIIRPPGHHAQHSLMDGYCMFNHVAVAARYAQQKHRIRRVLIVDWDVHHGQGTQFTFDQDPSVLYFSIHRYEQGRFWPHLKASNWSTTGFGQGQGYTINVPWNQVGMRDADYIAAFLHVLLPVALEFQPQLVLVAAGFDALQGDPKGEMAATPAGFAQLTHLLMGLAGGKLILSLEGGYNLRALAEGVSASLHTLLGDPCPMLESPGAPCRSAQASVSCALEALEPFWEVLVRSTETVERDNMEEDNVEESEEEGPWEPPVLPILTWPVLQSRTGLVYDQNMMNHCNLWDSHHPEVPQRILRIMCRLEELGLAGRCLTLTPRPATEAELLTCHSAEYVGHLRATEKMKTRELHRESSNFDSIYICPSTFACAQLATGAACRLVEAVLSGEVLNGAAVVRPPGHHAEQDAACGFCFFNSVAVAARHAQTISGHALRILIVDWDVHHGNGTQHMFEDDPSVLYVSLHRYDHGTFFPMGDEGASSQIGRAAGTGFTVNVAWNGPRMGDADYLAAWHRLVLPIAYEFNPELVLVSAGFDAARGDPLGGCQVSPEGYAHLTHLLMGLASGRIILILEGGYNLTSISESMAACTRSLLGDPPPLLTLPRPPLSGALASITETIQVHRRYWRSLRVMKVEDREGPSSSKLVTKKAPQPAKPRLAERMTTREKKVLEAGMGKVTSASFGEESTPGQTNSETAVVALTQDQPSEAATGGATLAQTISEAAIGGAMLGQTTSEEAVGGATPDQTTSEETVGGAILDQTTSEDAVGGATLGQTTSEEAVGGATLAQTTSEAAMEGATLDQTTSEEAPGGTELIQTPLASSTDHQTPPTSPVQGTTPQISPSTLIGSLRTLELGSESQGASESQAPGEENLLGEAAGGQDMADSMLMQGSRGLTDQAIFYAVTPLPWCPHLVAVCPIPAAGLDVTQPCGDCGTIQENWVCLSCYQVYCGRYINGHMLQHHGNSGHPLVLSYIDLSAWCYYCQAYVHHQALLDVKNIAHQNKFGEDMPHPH
# Assay Procedure: Inhibition of full length recombinant human N-terminal GST-tagged HDAC6 expressed in baculovirus infected sf9 cells using Boc-Lys-(Ac)-AMC as substrate preincubated for 15 mins followed by substrate addition measured after 60 mins by fluorescence assay
pIC50: −log10 of the molar value.
We begin with a simple list: items and their reported pIC50.

- Compound: "Cc1ccc(-c2cc(C(F)(F)F)n(Cc3ccc(C(=O)NO)cc3)n2)cc1"
  Study System: "Protein deacetylase HDAC6 (Homo sapiens)"
  pIC50: 7.80
- Compound: "O=C(NO)c1ccc(Cn2nc(Cc3ccccc3)cc2-c2ccc(F)cc2)cc1"
  Study System: "Protein deacetylase HDAC6 (Homo sapiens)"
  pIC50: 6.38
- Compound: "O=C(CCCNC(=O)c1cc(-c2ccc(F)cc2)[nH]n1)NO"
  Study System: "Protein deacetylase HDAC6 (Homo sapiens)"
  pIC50: 5.98
- Compound: "Cc1cc(-c2ccc3c(c2)OCO3)n(Cc2ccc(C(=O)NO)cc2)n1"
  Study System: "Protein deacetylase HDAC6 (Homo sapiens)"
  pIC50: 7.44
- Compound: "Cc1cc(-c2ccc3c(c2)OCO3)nn1Cc1ccc(C(=O)NO)cc1"
  Study System: "Protein deacetylase HDAC6 (Homo sapiens)"
  pIC50: 8.30
- Compound: "O=C(CCCCCCNC(=O)c1cc(-c2ccc(F)cc2)[nH]n1)NO"
  Study System: "Protein deacetylase HDAC6 (Homo sapiens)"
  pIC50: 7.66
- Compound: "Cc1ccc(-c2cc(C(F)(F)F)nn2CCc2ccc(C(=O)NO)cc2)cc1"
  Study System: "Protein deacetylase HDAC6 (Homo sapiens)"
  pIC50: 6.27
- Compound: "O=C(NO)c1ccc(CNC(=O)c2cc(-c3ccc(F)cc3)[nH]n2)cc1"
  Study System: "Protein deacetylase HDAC6 (Homo sapiens)"
  pIC50: 9.00
- Compound: "O=C(NO)c1ccc(Cn2nc(-c3ccc(F)cc3)cc2Cc2ccccc2)cc1"
  Study System: "Protein deacetylase HDAC6 (Homo sapiens)"
  pIC50: 6.49
- Compound: "Cc1ccc(-c2cc(C(F)(F)F)nn2-c2ccc(S(N)(=O)=O)cc2)cc1 [CELECOXIB]"
  Study System: "Protein deacetylase HDAC6 (Homo sapiens)"
  pIC50: 6.19

----------
Recorded GI50, one value per entry.
# System: HepG2
# Assay Procedure: Antiproliferative activity against human HepG2 cells after 96 hrs by MTT assay
# Format: functional
# Condition Details: Homo sapiens, HepG2, 96 h

- Molecule: "Cc1ccc(-c2cc(C(F)(F)F)n(CCc3ccc(C(=O)NO)cc3)n2)cc1"
  Unit Name: "µM"
  Operator: "="
  GI50: 27.6
- Molecule: "O=C(CCCCCCNC(=O)c1cc(-c2ccc(F)cc2)[nH]n1)NO"
  Unit Name: "µM"
  Operator: "="
  GI50: 23.2
- Molecule: "CCc1cc(-c2ccc(F)cc2)n(Cc2ccc(C(=O)NO)cc2)n1"
  Unit Name: "µM"
  Operator: "="
  GI50: 7.76
- Molecule: "O=C(CCNC(=O)c1cc(-c2ccc(F)cc2)[nH]n1)NO"
  Unit Name: "µM"
  Operator: "="
  GI50: 76
- Molecule: "Cc1ccc(-c2cc(C(F)(F)F)nn2-c2ccc(C(=O)NO)cc2)cc1"
  Unit Name: "µM"
  Operator: ">"
  GI50: 100
- Molecule: "Cc1cc(-c2ccc(F)cc2)nn1Cc1ccc(C(=O)NO)cc1"
  Unit Name: "µM"
  Operator: "="
  GI50: 30
- Molecule: "Cc1ccc(-c2cc(C)nn2Cc2ccc(C(=O)NO)cc2)cc1"
  Unit Name: "µM"
  Operator: "="
  GI50: 13.3
- Molecule: "Cc1ccc(-c2cc(C(F)(F)F)nn2CCc2ccc(C(=O)NO)cc2)cc1"
  Unit Name: "µM"
  Operator: "="
  GI50: 24
- Molecule: "CCCc1cc(-c2ccc(F)cc2)n(Cc2ccc(C(=O)NO)cc2)n1"
  Unit Name: "µM"
  Operator: "="
  GI50: 6.66
- Molecule: "Cc1ccc(-c2cc(C(F)(F)F)nn2Cc2ccc(C(=O)NO)cc2)cc1"
  Unit Name: "µM"
  Operator: "="
  GI50: 7.5
- Molecule: "O=C(NO)c1ccc(CNC(=O)c2cc(-c3ccc(F)cc3)[nH]n2)cc1"
  Unit Name: "µM"
  Operator: "="
  GI50: 38.1
- Molecule: "Cc1ccc(-c2cc(C)n(Cc3ccc(C(=O)NO)cc3)n2)cc1"
  Unit Name: "µM"
  Operator: "="
  GI50: 21.2
- Molecule: "Cc1cc(-c2ccc(F)cc2)n(Cc2ccc(C(=O)NO)cc2)n1"
  Unit Name: "µM"
  Operator: "="
  GI50: 3.63
- Molecule: "O=C(CCCNC(=O)c1cc(-c2ccc(F)cc2)[nH]n1)NO"
  Unit Name: "µM"
  Operator: "="
  GI50: 88
- Molecule: "CCc1cc(-c2ccc(F)cc2)nn1Cc1ccc(C(=O)NO)cc1"
  Unit Name: "µM"
  Operator: "="
  GI50: 16.7
- Molecule: "CCCc1cc(-c2ccc(F)cc2)nn1Cc1ccc(C(=O)NO)cc1"
  Unit Name: "µM"
  Operator: "="
  GI50: 16.8
- Molecule: "O=C(CCCCCNC(=O)c1cc(-c2ccc(F)cc2)[nH]n1)NO"
  Unit Name: "µM"
  Operator: "="
  GI50: 47.6
- Molecule: "Cc1cc(-c2ccc3c(c2)OCO3)nn1Cc1ccc(C(=O)NO)cc1"
  Unit Name: "µM"
  Operator: "="
  GI50: 20.8
- Molecule: "Cc1cc(-c2ccc3c(c2)OCO3)n(Cc2ccc(C(=O)NO)cc2)n1"
  Unit Name: "µM"
  Operator: "="
  GI50: 16.5
- Molecule: "O=C(CCCCNC(=O)c1cc(-c2ccc(F)cc2)[nH]n1)NO"
  Unit Name: "µM"
  Operator: ">"
  GI50: 100
- Molecule: "Cc1ccc(-c2cc(C(F)(F)F)n(Cc3ccc(C(=O)NO)cc3)n2)cc1"
  Unit Name: "µM"
  Operator: "="
  GI50: 8.58

----------
# Study System: Histone deacetylase 1 (Homo sapiens)
# Sequence (Q13547 whole entry): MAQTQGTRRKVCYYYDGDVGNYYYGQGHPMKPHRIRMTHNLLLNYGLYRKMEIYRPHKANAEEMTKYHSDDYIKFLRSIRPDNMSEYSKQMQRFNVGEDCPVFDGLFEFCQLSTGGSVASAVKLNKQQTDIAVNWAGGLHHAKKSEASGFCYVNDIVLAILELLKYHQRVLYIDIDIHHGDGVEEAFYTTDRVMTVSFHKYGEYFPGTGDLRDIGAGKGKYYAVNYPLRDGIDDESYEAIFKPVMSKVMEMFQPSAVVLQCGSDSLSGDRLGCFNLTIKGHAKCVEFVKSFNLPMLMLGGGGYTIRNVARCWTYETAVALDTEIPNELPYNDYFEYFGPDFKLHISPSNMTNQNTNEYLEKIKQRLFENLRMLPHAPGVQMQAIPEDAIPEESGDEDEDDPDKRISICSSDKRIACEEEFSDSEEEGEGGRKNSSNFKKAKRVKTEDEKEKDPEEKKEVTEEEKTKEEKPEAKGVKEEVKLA
# Assay Procedure: Inhibition of full length recombinant human C-terminal FLAG/His-tagged HDAC1 expressed in baculovirus infected sf9 cells using Boc-Lys-(Ac)-AMC as substrate preincubated for 15 mins followed by substrate addition measured after 60 mins by fluorescence assay

- Molecule: "CCCc1cc(-c2ccc(F)cc2)n(Cc2ccc(C(=O)NO)cc2)n1"
  Study System: "Histone deacetylase 1 (Homo sapiens)"
  Operator: ">"
  IC50 (nM): 5000
- Molecule: "CCc1cc(-c2ccc(F)cc2)n(Cc2ccc(C(=O)NO)cc2)n1"
  Study System: "Histone deacetylase 1 (Homo sapiens)"
  Operator: "="
  IC50 (nM): 3610
- Molecule: "Cc1ccc(-c2cc(C(F)(F)F)nn2Cc2ccc(C(=O)NO)cc2)cc1"
  Study System: "Histone deacetylase 1 (Homo sapiens)"
  Operator: "="
  IC50 (nM): 925
- Molecule: "Cc1ccc(-c2cc(C(F)(F)F)n(Cc3ccc(C(=O)NO)cc3)n2)cc1"
  Study System: "Histone deacetylase 1 (Homo sapiens)"
  Operator: "="
  IC50 (nM): 110
- Molecule: "Cc1ccc(-c2cc(C)nn2Cc2ccc(C(=O)NO)cc2)cc1"
  Study System: "Histone deacetylase 1 (Homo sapiens)"
  Operator: "="
  IC50 (nM): 694
- Molecule: "CCc1cc(-c2ccc(F)cc2)nn1Cc1ccc(C(=O)NO)cc1"
  Study System: "Histone deacetylase 1 (Homo sapiens)"
  Operator: "="
  IC50 (nM): 487
- Molecule: "O=C(CCNC(=O)c1cc(-c2ccc(F)cc2)[nH]n1)NO"
  Study System: "Histone deacetylase 1 (Homo sapiens)"
  Operator: ">"
  IC50 (nM): 5000
- Molecule: "Cc1ccc(-c2cc(C(F)(F)F)nn2-c2ccc(C(=O)NO)cc2)cc1"
  Study System: "Histone deacetylase 1 (Homo sapiens)"
  Operator: "="
  IC50 (nM): 836
- Molecule: "CCCc1cc(-c2ccc(F)cc2)nn1Cc1ccc(C(=O)NO)cc1"
  Study System: "Histone deacetylase 1 (Homo sapiens)"
  Operator: "="
  IC50 (nM): 541
- Molecule: "Cc1cc(-c2ccc3c(c2)OCO3)n(Cc2ccc(C(=O)NO)cc2)n1"
  Study System: "Histone deacetylase 1 (Homo sapiens)"
  Operator: "="
  IC50 (nM): 430
- Molecule: "O=C(CCCCNC(=O)c1cc(-c2ccc(F)cc2)[nH]n1)NO"
  Study System: "Histone deacetylase 1 (Homo sapiens)"
  Operator: "="
  IC50 (nM): 1040
- Molecule: "O=C(CCCNC(=O)c1cc(-c2ccc(F)cc2)[nH]n1)NO"
  Study System: "Histone deacetylase 1 (Homo sapiens)"
  Operator: "="
  IC50 (nM): 3740
- Molecule: "Cc1ccc(-c2cc(C(F)(F)F)nn2CCc2ccc(C(=O)NO)cc2)cc1"
  Study System: "Histone deacetylase 1 (Homo sapiens)"
  Operator: "="
  IC50 (nM): 1070
- Molecule: "Cc1ccc(-c2cc(C(F)(F)F)nn2-c2ccc(S(N)(=O)=O)cc2)cc1"
  Study System: "Histone deacetylase 1 (Homo sapiens)"
  Operator: "="
  IC50 (nM): 1190
- Molecule: "Cc1cc(-c2ccc(F)cc2)n(Cc2ccc(C(=O)NO)cc2)n1"
  Study System: "Histone deacetylase 1 (Homo sapiens)"
  Operator: "="
  IC50 (nM): 2020
- Molecule: "Cc1ccc(-c2cc(C(F)(F)F)n(CCc3ccc(C(=O)NO)cc3)n2)cc1"
  Study System: "Histone deacetylase 1 (Homo sapiens)"
  Operator: "="
  IC50 (nM): 352
- Molecule: "O=C(CCCCCCNC(=O)c1cc(-c2ccc(F)cc2)[nH]n1)NO"
  Study System: "Histone deacetylase 1 (Homo sapiens)"
  Operator: "="
  IC50 (nM): 79
- Molecule: "Cc1cc(-c2ccc3c(c2)OCO3)nn1Cc1ccc(C(=O)NO)cc1"
  Study System: "Histone deacetylase 1 (Homo sapiens)"
  Operator: "="
  IC50 (nM): 24
